Origin of measurements: paper PMC8452690

Target Under Test: DCLK1-FL1Δ WT (Homo sapiens, UniProt O15075)
Sequence (O15075 50-686, stated change not applied): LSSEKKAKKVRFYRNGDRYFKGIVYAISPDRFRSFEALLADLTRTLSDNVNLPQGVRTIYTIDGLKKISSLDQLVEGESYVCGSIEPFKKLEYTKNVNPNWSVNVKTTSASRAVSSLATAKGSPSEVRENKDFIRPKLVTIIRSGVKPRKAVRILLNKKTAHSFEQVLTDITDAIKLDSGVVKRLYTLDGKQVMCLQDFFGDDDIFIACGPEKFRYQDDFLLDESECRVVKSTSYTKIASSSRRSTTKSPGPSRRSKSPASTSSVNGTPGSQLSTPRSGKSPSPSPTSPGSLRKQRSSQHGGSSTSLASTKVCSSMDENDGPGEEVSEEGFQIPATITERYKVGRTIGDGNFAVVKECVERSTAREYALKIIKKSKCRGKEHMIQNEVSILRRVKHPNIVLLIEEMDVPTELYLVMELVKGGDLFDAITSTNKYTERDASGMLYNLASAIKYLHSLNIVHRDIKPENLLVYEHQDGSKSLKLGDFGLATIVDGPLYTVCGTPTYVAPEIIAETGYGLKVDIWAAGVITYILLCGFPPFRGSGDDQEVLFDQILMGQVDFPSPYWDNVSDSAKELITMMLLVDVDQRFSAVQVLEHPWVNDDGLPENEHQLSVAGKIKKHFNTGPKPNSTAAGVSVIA
Assay Method Text: SPR binding to immobilised DCLK1-FL1Δ WT (phosphorylated)
Test Conditions: SPR, 18 °C, DCLK1 FL1Δ WT immobilised; mean ± SEM; read-out: KD, steady state fitting
Quantity: pKd
pKd is defined as minus the log10 of a concentration measured in mol/L.

Would you mind telling me what pKd value was observed for COc1cc(N2CCN(C)CC2)ccc1Nc1ncc2c(n1)N(C)c1ccccc1C(=O)N2CC(F)(F)F ?
6.84
